- experimentalSystem: Mcl-1 protein (UniProtKB primary accession number: Q07820) (Homo sapiens, UniProt Q07820)
- Sequence (Q07820 whole entry): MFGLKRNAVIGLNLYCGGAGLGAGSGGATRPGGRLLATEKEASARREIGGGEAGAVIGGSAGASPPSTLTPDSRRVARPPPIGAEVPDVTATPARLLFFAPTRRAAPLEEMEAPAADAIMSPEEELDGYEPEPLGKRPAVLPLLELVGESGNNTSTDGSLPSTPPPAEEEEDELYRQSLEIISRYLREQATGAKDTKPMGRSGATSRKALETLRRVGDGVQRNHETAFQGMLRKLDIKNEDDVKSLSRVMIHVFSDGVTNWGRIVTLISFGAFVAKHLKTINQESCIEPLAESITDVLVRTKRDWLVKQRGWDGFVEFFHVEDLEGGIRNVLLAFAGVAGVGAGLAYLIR
- measurementDescription: Inhibition of Mcl-1 by fluorescence polarisation, Method 1
- Format: binding
- testSettings: fluorescence polarisation; Method 1, or Method 2; read-out: IC50 (M) Mcl-1 FP
Catalogue of log10 of IC50 readings, one per entry.
The common logarithm of IC50 in M is what is listed.

Solved entries:
- compound: "Cc1c(-c2c(-c3ccc(F)c(F)c3)sc3ncnc(OC(Cc4ccccc4OCc4ccnc(C(F)(F)F)n4)C(=O)O)c23)ccc(OCCN2CCN(C)CC2)c1Cl (stereo not drawn)"
  endpointLabel: "log10 of IC50"
  reportedValue: -7.85
- compound: "CCc1sc2ncnc(OC(Cc3ccccc3)C(=O)O)c2c1-c1cc([N+](=O)[O-])c(O)c(Cl)c1C (stereo not drawn)"
  endpointLabel: "log10 of IC50"
  reportedValue: -8.34
- compound: "COc1ccccc1CC(Oc1ncnc2sc(-c3ccc(F)cc3)c(-c3ccc(OCCN4CCN(C)CC4)c(Cl)c3Cl)c12)C(=O)O (stereo not drawn)"
  endpointLabel: "log10 of IC50"
  reportedValue: -7.64
- compound: "COc1ccccc1-c1nccc(COc2ccccc2CC(Oc2ncnc3sc(-c4ccc(Oc5ccccc5)cc4)c(-c4ccc(OCCN5CCN(C)CC5)c(Cl)c4C)c23)C(=O)O)n1 (single isomer, unassigned) [Example 759]"
  endpointLabel: "log10 of IC50"
  reportedValue: -8.04

Notebook: COc1ccccc1CC(Oc1ncnc2sc(-c3ccc(C(OC)OC)o3)c(-c3ccc(OCCN4CCN(C)CC4)c(Cl)c3C)c12)C(=O)O (stereo not drawn) , log10 of IC50 read as -6.37

Summary for this compound, CC#Cc1sc2ncnc(OC(Cc3ccccc3OCc3ccnc(OCC(F)(F)F)n3)C(=O)O)c2c1-c1ccc(OCCN2CCN(C)CC2)c(Cl)c1C (stereo not drawn) : log10 of IC50 is -8.19

----------
- experimentalSystem: Mcl-1 protein (UniProtKB primary accession number: Q07820) (Homo sapiens, UniProt Q07820)
- measurementDescription: Inhibition of Mcl-1 by fluorescence polarisation, Method 1
- Format: binding
- testSettings: fluorescence polarisation; Method 1, or Method 2; read-out: IC50 (M) Mcl-1 FP
// reported IC50 for each item listed
The answer should read as a number with its unit following.

Record COc1ccccc1C[C@@H](Oc1ncnc2sc(-c3ccc(F)c(Cl)c3F)c(-c3ccc(OCCN4CCN(C)CC4)c(Cl)c3C)c12)C(=O)O [Example 536] / Mcl-1 protein (UniProtKB primary accession number: Q07820) (Homo sapiens, UniProt Q07820), IC50 recorded as 7.7e-08 M

Case CC/C=C\c1sc2ncnc(O[C@H](Cc3ccccc3)C(=O)O)c2c1-c1ccc(OCCN2CCN(C)CC2)c(Cl)c1C [Example 493] , Mcl-1 protein (UniProtKB primary accession number: Q07820) (Homo sapiens, UniProt Q07820), IC50 recorded as 5e-09 M

Value (IC50, Mcl-1 protein (UniProtKB primary accession number: Q07820) (Homo sapiens, UniProt Q07820)) for record COc1ccc(-c2c(-c3ccc(F)cc3)sc3ncnc(OC(Cc4ccccc4OCc4ccnn4CCN(C)C)C(=O)O)c23)c(C)c1Cl (stereo not drawn) [Example 663] = 2.5e-08 M
